Value source: paper PMC6718548

System: phosphorylated tau at Thr212 in HEK293T cells
Assay: pTau Thr212 sandwich ELISA in double-transfected HEK293T cells
Type: cell-based, human
Details: HEK293T co-transfected with DYRK1A and MAPT, overnight treatment, single lot, read-out: Cell assay EC50 pTau at Thr212
pEC50: −log10 of the molar value.
Metric: pEC50

[[record]]
compound = "CCN1/C(=C/C(C)=O)Sc2ccc(O)cc21 [INDY]"
target_system = "phosphorylated tau at Thr212 in HEK293T cells"
metric = "pEC50"
bound_type = "<"
numeric_readout = 5.00

[[record]]
compound = "O=C(O[C@@H]1Cc2c(O)cc(O)cc2O[C@@H]1c1cc(O)c(O)c(O)c1)c1cc(O)c(O)c(O)c1 [EGCG, Epigallocatechin gallate]"
target_system = "phosphorylated tau at Thr212 in HEK293T cells"
metric = "pEC50"
bound_type = "<"
numeric_readout = 5.00

[[record]]
compound = "O=C1NC(Nc2ccccc2)=N/C1=C\\c1ccc2c(c1)OCO2 [Leucettine L41]"
target_system = "phosphorylated tau at Thr212 in HEK293T cells"
metric = "pEC50"
bound_type = "="
numeric_readout = 7.14

[[record]]
compound = "COC(=N)c1nc2ccc3ncnc(Nc4ccc(Cl)cc4Cl)c3c2s1 [EHT-5372]"
target_system = "phosphorylated tau at Thr212 in HEK293T cells"
metric = "pEC50"
bound_type = "="
numeric_readout = 5.42

[[record]]
compound = "CCN1/C(=C/C(C)=O)Sc2ccc(OC)cc21 [TG003]"
target_system = "phosphorylated tau at Thr212 in HEK293T cells"
metric = "pEC50"
bound_type = "<"
numeric_readout = 5.00

